Experiment: in vivo
Details: rabbit, Rapamycin level, Blood
OUTCOME_MEASURE: concentration at 3 day (ng/mL)
Express your answer in ng/mL, writing the number without its unit.

Form field: reported concentration at 3 day of CO[C@H]1C[C@@H]2CC[C@@H](C)[C@@](O)(O2)C(=O)C(=O)N2CCCC[C@H]2C(=O)O[C@H]([C@H](C)C[C@@H]2CC[C@@H](O)[C@H](OC)C2)CC(=O)[C@H](C)/C=C(\C)[C@@H](O)[C@@H](OC)C(=O)[C@H](C)C[C@H](C)/C=C/C=C/C=C/1C
37.1

* * *

Assay: in vivo
Conditions: rabbit, Rapamycin level, Blood
OUTCOME_MEASURE: concentration at 12 day (ng/mL)
// return numeric value only (unit: ng/mL, not printed)

Which concentration at 12 day reading was recorded for the compound CO[C@H]1C[C@@H]2CC[C@@H](C)[C@@](O)(O2)C(=O)C(=O)N2CCCC[C@H]2C(=O)O[C@H]([C@H](C)C[C@@H]2CC[C@@H](O)[C@H](OC)C2)CC(=O)[C@H](C)/C=C(\C)[C@@H](O)[C@@H](OC)C(=O)[C@H](C)C[C@H](C)/C=C/C=C/C=C/1C [sirolimus, rapamycin] ?
2.88
